System: Listonella anguillarum
testDescription: Marine bacteria microdilution MIC
conditionSummary: Vibrio anguillarum, L. anguillarum
For each of the compounds below, state its MIC.
Give just the number in µg/mL; leave the unit off.

Reported MIC ( CCCCCc1[nH]c(N)nc1CCCCCc1ccccc1 [Compound 15] ) = 2.1

Reported MIC ( CCCCCCc1[nH]c(N)nc1CCCCCc1ccccc1 [Compound 19] ) = 2.2

Reported MIC ( CCc1[nH]c(N)nc1CCCCCc1ccccc1 [Compound 12] ) = 14.7

Reported MIC ( CCCc1[nH]c(N)nc1CCCCCc1ccccc1 [Compound 13] ) = 7.7

Reported MIC ( Cc1[nH]c(N)nc1CCCCCc1ccccc1 [Compound 11] ) = 13.9

Reported MIC ( CCCCc1[nH]c(N)nc1CCCCCc1ccccc1 [Compound 14] ) = 4.02
